Measured values drawn from PubChem BioAssay AID1159580 for this set.

normalized growth reference
Experiment: chemical genetic growth profiling, strain panel (AID 1159580);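 further: tested at 20 µM; growth read once vehicle control cultures reached saturation at 30 °C; 1 = growth at the plate median or of vehicle wells; lower values mean less growth of the strain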
Details: S. cerevisiae deletion strains, growth OD, locus YBR009C, strain hhf1, stronger effect = lower value
Out of some 5,500 compounds screened, about 2,000 (36%) were called active. About 18% were inconclusive and are not listed. Some of the results follow.
Reply briefly: the number, and no unit.

Field: example entries. Status: answers known.
{"compound": "COC1CC(O[C@H]2CC[C@]3(C=O)C4CC[C@]5(C)C(C6=CC(=O)OC6)CC[C@]5(O)C4CC[C@]3(O)C2)OC(C)C1O (stereo partly specified)", "data_value": 0.985}
{"compound": "COc1c(O)cc2c(c1O)[C@H]1O[C@H](CO)[C@@H](O)[C@H](O)[C@@H]1OC2=O", "data_value": 1.02}
{"compound": "COc1ccccc1N1CCN(CCCNc2cc(=O)n(C)c(=O)n2C)CC1", "data_value": 1}
{"compound": "Nc1ccc(S(=O)(=O)Nc2ncccn2)cc1", "data_value": 0.986}
{"compound": "CO[C@@H]1[C@@H](OC(N)=O)[C@@H](O)[C@H](Oc2ccc3c(O)c(NC(=O)c4ccc(O)c(CC=C(C)C)c4)c(=O)oc3c2C)OC1(C)C", "data_value": 1.02}

Inquiry: Fill in: normalized growth of CO[C@H]1[C@@H](O)[C@@H](C)O[C@H](O[C@H]2CCC3(C)C4CCC5(C)[C@@H](C6=CC(=O)OC6)CC[C@]5(O)[C@@H]4CC[C@]3(O)C2)[C@@H]1O (stereo partly specified) is ___
Reply text: 1.02
